Assay notes: Acute toxicity in the Swiss mouse (parenteral and oral administration)
Particulars: in vivo, ip
Experimental readout: LD50 (mg/kg)
State just the number; it will be interpreted in mg/kg.

Query string: Name the reported LD50 value associated with the molecule C=CCN1CCCC1CNC(=O)c1cc(S(N)(=O)=O)cc(OC)c1OC (stereo not shown)
Result string: 320

---

Assay notes: Acute toxicity in the Swiss mouse (parenteral and oral administration)
Particulars: in vivo, sc
Experimental readout: LD50

Query string: # input molecule: C=CCN1CCCC1CNC(=O)c1cc(S(N)(=O)=O)cc(OC)c1OC (stereo not shown) ; wanted: its LD50
Result string: 465 to 518 mg/kg

---

Assay notes: Semichronic toxicity in the Wistar rat, oral, four weeks
Particulars: in vivo, doses 0.5, 1 and 2 g/kg per 24 hours, read-out: relatively or completely non-toxic up to (dose)
Experimental readout: NOAEL at 672 h (mg/kg/day)
Dear colleague, please return just the value in mg/kg/day, with no unit written.

Query string: Which NOAEL at 672 h value is on record for C=CCN1CCCC1CNC(=O)c1cc(S(N)(=O)=O)cc(OC)c1OC (stereo not shown) ?
Result string: 1000

---

Assay notes: Acute toxicity in the Swiss mouse (parenteral and oral administration)
Particulars: in vivo, iv
Experimental readout: LD50

Query string: Fill in: LD50 of C=CCN1CCCC1CNC(=O)c1cc(S(N)(=O)=O)cc(OC)c1OC (stereo not shown) is ___
Result string: 124 to 129 mg/kg

---

Assay notes: Acute toxicity in the Swiss mouse (parenteral and oral administration)
Particulars: in vivo, po
From the text: The acute toxicity of the compound was studied in the Swiss mouse with both parenteral and oral administration and in the Wistar rat with oral administration.
Experimental readout: LD50 (mg/kg)
The reply should contain only the number, in mg/kg.

Query string: Requested field: LD50. Item: C=CCN1CCCC1CNC(=O)c1cc(S(N)(=O)=O)cc(OC)c1OC (stereo not shown)
Result string: 1300
